Origin of values: the supplement of paper PMC9112550

Test system: Escherichia coli TOP10
Test: shrunken log2 fold change of peptide-encoding DNA abundance (4.5 h post-induction vs induction); higher = less antimicrobial activity (less host growth inhibition)
Settings: time post-induction: 4.5 h; library: site-saturation at positions 5, 18, 19, 20
Decide by shrunken log2 fold change: equal to or exceeding 0.2 means True, less means False.

Query block: Given RRIRWRPPRLPRPRPRPVGMPRP , state whether its shrunken log2 fold change is at least 0.2.
Result block: True

Query block: Check if shrunken log2 fold change >= 0.2 (inclusive). Item: RRIRMRPPRLPRPRPRPRWWPRP
Result block: True

Query block: Is shrunken log2 fold change at least 0.2? Consider RRIRIRPPRLPRPRPRPQEIPRP
Result block: False

Query block: Is the recorded value of shrunken log2 fold change equal to or greater than 0.2 for this sequence? RRIRNRPPRLPRPRPRPNLDPRP
Result block: False

Query block: Answer whether shrunken log2 fold change of RRIRWRPPRLPRPRPRPSQLPRP is greater than or equal to 0.2.
Result block: False

Query block: Please check the record RRIRKRPPRLPRPRPRPHQWPRP and state if its shrunken log2 fold change is at or above 0.2.
Result block: True

Query block: # check: shrunken log2 fold change of RRIRCRPPRLPRPRPRPIIAPRP is greater than or equal to 0.2
Result block: False

Query block: Can RRIRQRPPRLPRPRPRPYLDPRP be said to have shrunken log2 fold change at or above 0.2?
Result block: False

Query block: Is shrunken log2 fold change at least 0.2? Consider RRIRMRPPRLPRPRPRPVNAPRP
Result block: True

Query block: Check the entry RRIRRRPPRLPRPRPRPWRGPRP : does shrunken log2 fold change equal or exceed 0.2?
Result block: True

Query block: Is shrunken log2 fold change at least 0.2? Consider RRIRYRPPRLPRPRPRPTVLPRP
Result block: False

Query block: Is it the case that RRIRNRPPRLPRPRPRPKMWPRP has shrunken log2 fold change reaching or exceeding 0.2?
Result block: True

Query block: Could you please find out whether RRIRIRPPRLPRPRPRPLLMPRP has shrunken log2 fold change that meets 0.2 or exceeds it?
Result block: False

Query block: Threshold query (shrunken log2 fold change >= 0.2) on RRIRCRPPRLPRPRPRPFWPPRP
Result block: False

Query block: Determine whether this sequence has shrunken log2 fold change no lower than 0.2: RRIRCRPPRLPRPRPRPDIWPRP
Result block: False

###

Exercise: for every item that follows, state its recorded shrunken log2 fold change.
System: Escherichia coli TOP10
Assay: shrunken log2 fold change of peptide-encoding DNA abundance (4.5 h post-induction vs induction); higher = less antimicrobial activity (less host growth inhibition)
Conditions: time post-induction: 4.5 h; library: site-saturation at positions 5, 18, 19, 20
No unit in the answer, only the number.

Query block: # get_value(readout='shrunken log2 fold change', item= RRIRGRPPRLPRPRPRPKWNPRP )
Result block: 0.581

Query block: // returns reported shrunken log2 fold change for input RRIRARPPRLPRPRPRPSMNPRP
Result block: -0.032

Query block: Give the measured shrunken log2 fold change of RRIRCRPPRLPRPRPRPVGTPRP .
Result block: -0.149

Query block: I have this sequence here, RRIRCRPPRLPRPRPRPDHKPRP , and I need its recorded shrunken log2 fold change.
Result block: -1.04

Query block: Please report the recorded shrunken log2 fold change for RRIRERPPRLPRPRPRPTMVPRP .
Result block: 0.0432

Query block: // lookup shrunken log2 fold change for RRIRKRPPRLPRPRPRPHPEPRP
Result block: 0.39

Query block: Fill in the blank: the reported shrunken log2 fold change of RRIRPRPPRLPRPRPRPVMDPRP is ____.
Result block: 0.0311

Query block: Param item = RRIRGRPPRLPRPRPRPRFCPRP ; retrieve measured shrunken log2 fold change.
Result block: 0.569

Query block: // lookup shrunken log2 fold change for RRIRPRPPRLPRPRPRPCTRPRP
Result block: 2.07

Query block: // shrunken log2 fold change lookup, key: RRIRKRPPRLPRPRPRPKHPPRP
Result block: 0.068

Query block: Requested read-out: shrunken log2 fold change. Entry: RRIRFRPPRLPRPRPRPREKPRP
Result block: -0.0136

Query block: Look at this sequence and give its reported shrunken log2 fold change. RRIRIRPPRLPRPRPRPIPLPRP
Result block: 3.4

Query block: Given the entry RRIRARPPRLPRPRPRPNRMPRP , report its measured shrunken log2 fold change.
Result block: 0.0574

Query block: Quick check: shrunken log2 fold change of RRIRYRPPRLPRPRPRPIQYPRP ?
Result block: -0.18

Query block: Field request: shrunken log2 fold change | item: RRIRTRPPRLPRPRPRPLWWPRP
Result block: 0.546

###

System: Escherichia coli TOP10
Assay: shrunken log2 fold change of peptide-encoding DNA abundance (4.5 h post-induction vs induction); higher = less antimicrobial activity (less host growth inhibition)
Conditions: time post-induction: 4.5 h; library: site-saturation at positions 5, 18, 19, 20
Binning scheme for shrunken log2 fold change: bottom bin = under -0.07, middle bin = from -0.07 up to 0.1, top bin = 0.1 and over

Query block: Using the reported shrunken log2 fold change, which band applies to RRIRCRPPRLPRPRPRPLTEPRP ?
Result block: top bin

Query block: Please indicate the class for RRIRTRPPRLPRPRPRPFHRPRP based on its shrunken log2 fold change.
Result block: bottom bin

Query block: // bin(item) where item = RRIRYRPPRLPRPRPRPVIGPRP
Result block: bottom bin

Query block: For RRIRHRPPRLPRPRPRPVFIPRP , which shrunken log2 fold change bin applies?
Result block: bottom bin

Query block: Pick a category. Item: RRIRARPPRLPRPRPRPWKGPRP
Result block: top bin

Query block: Could you tell me which band RRIRVRPPRLPRPRPRPAEVPRP belongs to?
Result block: middle bin

Query block: Lab log: RRIRARPPRLPRPRPRPFISPRP — assign shrunken log2 fold change category
Result block: top bin

Query block: Any idea which band RRIRTRPPRLPRPRPRPEMHPRP is in?
Result block: bottom bin

Query block: State the class of the sequence shown: RRIRQRPPRLPRPRPRPRIAPRP
Result block: top bin

Query block: Band assignment needed for RRIRTRPPRLPRPRPRPYPVPRP please.
Result block: top bin

Query block: Field: class (shrunken log2 fold change) — entry: RRIRTRPPRLPRPRPRPCWSPRP
Result block: top bin

Query block: Please report the category associated with RRIRYRPPRLPRPRPRPFYMPRP , nothing else.
Result block: bottom bin

Query block: Assign a bin to RRIRGRPPRLPRPRPRPGHWPRP
Result block: top bin

Query block: Which bin should I file RRIRARPPRLPRPRPRPISDPRP under?
Result block: top bin

Query block: Note: place this sequence into its band. Item: RRIRWRPPRLPRPRPRPEKPPRP
Result block: top bin

Query block: // bin(item) where item = RRIRERPPRLPRPRPRPKRNPRP
Result block: bottom bin

Query block: Consider RRIRVRPPRLPRPRPRPIACPRP . To which shrunken log2 fold change class does it belong?
Result block: middle bin

Query block: Class? Entry: RRIRGRPPRLPRPRPRPMCNPRP
Result block: top bin

Query block: Input RRIRPRPPRLPRPRPRPDDFPRP ; output its category
Result block: bottom bin

Query block: Which bin, given its shrunken log2 fold change, does RRIRDRPPRLPRPRPRPIAVPRP occupy?
Result block: middle bin

Query block: # bin lookup: classify RRIRHRPPRLPRPRPRPVTPPRP by its shrunken log2 fold change
Result block: middle bin

Query block: Category lookup for the sequence RRIRSRPPRLPRPRPRPYYLPRP
Result block: bottom bin

Query block: Which shrunken log2 fold change category applies to RRIRERPPRLPRPRPRPNTMPRP here?
Result block: bottom bin

Query block: Just checking, what class would you give RRIRGRPPRLPRPRPRPKSTPRP here?
Result block: top bin

Query block: Please report the category associated with RRIRDRPPRLPRPRPRPWVTPRP , nothing else.
Result block: middle bin

Query block: Quick check: band for RRIRQRPPRLPRPRPRPKTLPRP
Result block: bottom bin

Query block: // return the class label for RRIRFRPPRLPRPRPRPMKPPRP
Result block: middle bin

Query block: Quick check: band for RRIRPRPPRLPRPRPRPILDPRP
Result block: middle bin

Query block: Assign a bin to RRIRTRPPRLPRPRPRPWCEPRP
Result block: middle bin

Query block: Which category fits this record: RRIRARPPRLPRPRPRPWYWPRP
Result block: middle bin

Query block: State the class of the sequence shown: RRIRRRPPRLPRPRPRPKMWPRP
Result block: top bin

Query block: State the class of the sequence shown: RRIRWRPPRLPRPRPRPKDCPRP
Result block: bottom bin

###

System: Escherichia coli TOP10;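 further: peptides expressed intracellularly from a pBAD plasmid library in pooled LB shake-flask culture, induced with 0.3% L-arabinose, DNA abundance read by NGS, three biological replicates, DESeq2 with apeglm shrinkage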
Test: shrunken log2 fold change of peptide-encoding DNA abundance (4.5 h post-induction vs induction); higher = less antimicrobial activity (less host growth inhibition)
Settings: time post-induction: 4.5 h; library: site-saturation at positions 5, 18, 19, 20
Record form. Attribute: shrunken log2 fold change. Fill in for each entry.
I'd appreciate a reply containing only the number, no unit.

Query block: Reported shrunken log2 fold change, sequence RRIRWRPPRLPRPRPRPYMKPRP : ____
Result block: -0.459

Query block: Please look up its shrunken log2 fold change: RRIRRRPPRLPRPRPRPTGGPRP
Result block: 0.296

Query block: Look up shrunken log2 fold change: RRIRPRPPRLPRPRPRPYVIPRP
Result block: -0.401

Query block: Could you share which shrunken log2 fold change value was measured for RRIRCRPPRLPRPRPRPAIEPRP ?
Result block: -0.384

Query block: Which shrunken log2 fold change is listed for RRIRVRPPRLPRPRPRPCRCPRP ?
Result block: -0.239

Query block: I have this sequence here, RRIRWRPPRLPRPRPRPEAKPRP , and I need its recorded shrunken log2 fold change.
Result block: 0.0319

Query block: Suppose we examine the sequence RRIRYRPPRLPRPRPRPCAAPRP ; what shrunken log2 fold change value has been reported?
Result block: -0.642

Query block: # lookup: shrunken log2 fold change of RRIRPRPPRLPRPRPRPMHPPRP
Result block: 0.324

Query block: shrunken log2 fold change for RRIRQRPPRLPRPRPRPYLHPRP ?
Result block: -0.117

Query block: Please look up its shrunken log2 fold change: RRIRVRPPRLPRPRPRPENPPRP
Result block: 0.0444

Query block: Please give the measured shrunken log2 fold change for this sequence: RRIRGRPPRLPRPRPRPWFPPRP
Result block: -0.132

Query block: Give the measured shrunken log2 fold change of RRIRGRPPRLPRPRPRPEAYPRP .
Result block: 0.0504

Query block: Tell me the measured shrunken log2 fold change of RRIRMRPPRLPRPRPRPLKNPRP , please.
Result block: -0.0484

Query block: Please report the recorded shrunken log2 fold change for RRIRHRPPRLPRPRPRPTTWPRP .
Result block: -0.182

Query block: Can you share its shrunken log2 fold change? I mean this sequence: RRIRRRPPRLPRPRPRPQECPRP
Result block: -0.0184

Query block: Could you tell me which shrunken log2 fold change is on file for RRIRRRPPRLPRPRPRPVNNPRP ?
Result block: -0.12

Query block: # query: shrunken log2 fold change of entry RRIRQRPPRLPRPRPRPCMIPRP
Result block: -0.0196

Query block: Recorded shrunken log2 fold change for RRIRARPPRLPRPRPRPQPFPRP , please?
Result block: -0.0268

Query block: So what's the measured shrunken log2 fold change for this one? RRIRGRPPRLPRPRPRPQWKPRP
Result block: 0.113

Query block: // query shrunken log2 fold change value for entry RRIRGRPPRLPRPRPRPECSPRP
Result block: 1.2

Query block: Recorded shrunken log2 fold change of RRIRWRPPRLPRPRPRPWNRPRP , please.
Result block: 0.066

Query block: Consider the sequence shown here: RRIRRRPPRLPRPRPRPQVIPRP What is its recorded shrunken log2 fold change?
Result block: -0.0307

Query block: shrunken log2 fold change for RRIRDRPPRLPRPRPRPLTCPRP ?
Result block: 0.254

Query block: Would you mind telling me what shrunken log2 fold change value was observed for RRIRRRPPRLPRPRPRPPEHPRP ?
Result block: 0.14

Query block: Look at this sequence and give its reported shrunken log2 fold change. RRIRYRPPRLPRPRPRPRKDPRP
Result block: -0.288

Query block: Quick one: shrunken log2 fold change for RRIRDRPPRLPRPRPRPFFGPRP ?
Result block: 1.19

Query block: Reported shrunken log2 fold change, sequence RRIRSRPPRLPRPRPRPHMCPRP : ____
Result block: -0.425

Query block: Item under review: RRIRTRPPRLPRPRPRPTIHPRP . Reported shrunken log2 fold change?
Result block: -0.712

Query block: Recorded shrunken log2 fold change for RRIRLRPPRLPRPRPRPLAGPRP , please?
Result block: 0.0705

Query block: Requested read-out: shrunken log2 fold change. Entry: RRIRERPPRLPRPRPRPRRNPRP
Result block: -0.0448

Query block: Can you share its shrunken log2 fold change? I mean this sequence: RRIRQRPPRLPRPRPRPFHIPRP
Result block: -1.55

Query block: Please look up its shrunken log2 fold change: RRIRCRPPRLPRPRPRPGNQPRP
Result block: -0.644
